test system: Enterococcus faecalis NCTC 12697
attributeMeasured: MIC

Asked: Which measured MIC value corresponds to CC(C)C[C@H](NC(=O)[C@H](C)NC(=O)[C@H](Cc1c[nH]c2ccccc12)NC(=O)[C@H](CCCCN)NC(=O)[C@H](CC(C)C)NC(=O)[C@@H](N)Cc1ccccc1)C(=O)N[C@@H](CCCCN)C(=O)N[C@H](C(=O)N[C@@H](C)C(=O)N[C@@H](C)C(=O)N[C@@H](CCCCN)C(N)=O)C(C)C [FLKWALKVAAK] ?
Given back: ≥ 512 µM

====

Consider compounds characterized by their MIC with Bacillus subtilis ATCC 6633.
Answers are plain numbers, in µM.

Required: MIC, one value per compound below.
1. CC[C@H](C)[C@H](N)C(=O)N[C@H](C(=O)N[C@@H](CCCCN)C(=O)N[C@H](C(=O)N[C@H](C(=O)N[C@H](C(=O)N[C@@H](CCCCN)C(=O)N[C@@H](CC(C)C)C(=O)N[C@@H](CC(C)C)C(=O)N[C@@H](CC(N)=O)C(=O)N[C@@H](CCCN=C(N)N)C(=O)N[C@@H](CC(C)C)C(=O)N[C@H](C(=O)N[C@@H](CCCCN)C(=O)N[C@H](C(=O)N[C@@H](CC(C)C)C(=O)N[C@@H](CO)C(=O)N[C@@H](CCCCN)C(=O)O)[C@@H](C)CC)[C@@H](C)O)[C@@H](C)O)[C@@H](C)CC)C(C)C)[C@@H](C)O
2. CC(C)C[C@H](NC(=O)[C@H](CCCCN)NC(=O)[C@H](CC(C)C)NC(=O)[C@H](CC(C)C)NC(=O)[C@H](Cc1c[nH]c2ccccc12)NC(=O)[C@H](CCCCN)NC(=O)[C@H](CC(C)C)NC(=O)[C@H](CC(C)C)NC(=O)[C@@H](N)CCCCN)C(N)=O
3. CC[C@H](C)[C@H](NC(=O)[C@H](CCCN=C(N)N)NC(=O)CNC(=O)[C@H](CC(C)C)NC(=O)[C@H](CCCCN)NC(=O)[C@H](CCCCN)NC(=O)[C@H](Cc1c[nH]c2ccccc12)NC(=O)[C@H](Cc1ccccc1)NC(=O)[C@H](CO)NC(=O)[C@H](CCCCN)NC(=O)[C@@H](NC(=O)[C@@H](N)Cc1ccccc1)C(C)C)C(=O)N[C@@H](CC(C)C)C(N)=O

Given back:
[15, 10.8, 3.8]

====

tested on: Acinetobacter baumannii
// NB: equality with 7 µM counts as No; only MIC strictly below is Yes

Use the examples below as a reference point.
smilesData	cat
CC(C)[C@H](NC(=O)[C@H](CCCN=C(N)N)NC(=O)[C@H](Cc1c[nH]c2ccccc12)NC(=O)[C@H](CCCN=C(N)N)NC(=O)[C@@H](NC(=O)[C@H](CCCN=C(N)N)NC(=O)[C@H](Cc1c[nH]c2ccccc12)NC(=O)[C@H](CCCN=C(N)N)NC(=O)[C@@H](NC(=O)[C@H](CCCN=C(N)N)NC(=O)[C@@H](N)Cc1c[nH]c2ccccc12)C(C)C)C(C)C)C(=O)N[C@@H](CCCN=C(N)N)C(N)=O	Yes
CC[C@H](C)[C@H](NC(=O)[C@H](CCCCN)NC(=O)CNC(=O)[C@H](C)NC(=O)[C@H](CCCCN)NC(=O)CNC(=O)[C@H](C)NC(=O)[C@@H](NC(=O)[C@H](CCCCN)NC(=O)[C@H](C)NC(=O)[C@@H](NC(=O)[C@H](CCCCN)NC(=O)CNC(=O)[C@H](C)NC(=O)[C@H](CCCCN)NC(=O)CNC(=O)[C@H](C)NC(=O)[C@@H](NC(=O)[C@@H](N)CCCCN)[C@@H](C)CC)[C@@H](C)CC)[C@@H](C)CC)C(=O)N[C@@H](C)C(N)=O	No
CC(C)C[C@H](NC(=O)CNC(=O)[C@H](Cc1ccccc1)NC(=O)[C@H](CCCN=C(N)N)NC(=O)[C@H](CCCN=C(N)N)NC(=O)CNC(=O)[C@H](Cc1cnc[nH]1)NC(=O)[C@H](CCCN=C(N)N)NC(=O)CNC(=O)[C@@H](NC(=O)[C@H](C)NC(=O)[C@@H](N)CO)C(C)C)C(=O)N[C@@H](CCCN=C(N)N)C(=O)N[C@@H](CCCCN)C(=O)N[C@@H](Cc1cnc[nH]1)C(=O)N[C@@H](CCCN=C(N)N)C(=O)N[C@@H](CCCCN)C(=O)N[C@@H](Cc1cnc[nH]1)C(=O)O	No

Asked: Here's an entry: CC[C@H](C)[C@H](NC(=O)[C@H](CCCN=C(N)N)NC(=O)[C@H](CCC(N)=O)NC(=O)[C@@H](NC(=O)[C@@H](NC(=O)[C@H](CCCN=C(N)N)NC(=O)[C@@H](N)CCCCN)[C@@H](C)CC)C(C)C)C(=O)N[C@@H](CCCCN)C(=O)N[C@@H](CCCCN)C(=O)N[C@@H](Cc1ccccc1)C(=O)N[C@@H](CC(C)C)C(=O)N[C@@H](CCCN=C(N)N)C(=O)O . Is its MIC below 7 µM?
Given back: No

Asked: Here's an entry: CSCC[C@H](NC(=O)[C@H](CC(C)C)NC(=O)[C@H](CCCCN)NC(=O)CNC(=O)[C@H](C)NC(=O)[C@H](C)NC(=O)[C@H](CCCN=C(N)N)NC(=O)[C@H](Cc1ccccc1)NC(=O)[C@H](CC(C)C)NC(=O)[C@@H](NC(=O)[C@H](Cc1c[nH]c2ccccc12)NC(=O)[C@@H](NC(=O)[C@@H](N)CCCCN)C(C)C)[C@@H](C)O)C(=O)N[C@@H](C)C(=O)N[C@@H](CCCCN)C(N)=O . Is its MIC below 7 µM?
Given back: No

Asked: Here's an entry: CC[C@H](C)[C@H](NC(=O)[C@H](CCCN=C(N)N)NC(=O)[C@@H](N)CCCN=C(N)N)C(=O)N[C@@H](CCCN=C(N)N)C(=O)N1CCC[C@H]1C(=O)N[C@@H](CCCN=C(N)N)C(=O)N1CCC[C@H]1C(=O)N1CCC[C@H]1C(=O)N[C@@H](CCCN=C(N)N)C(=O)N[C@@H](CC(C)C)C(=O)N1CCC[C@H]1C(=O)N[C@@H](CCCN=C(N)N)C(=O)N1CCC[C@H]1C(=O)N[C@@H](CCCN=C(N)N)C(=O)N1CCC[C@H]1C(=O)N[C@@H](CCCN=C(N)N)C(=O)O . Is its MIC below 7 µM?
Given back: Yes

Asked: Here's an entry: CC[C@H](C)[C@H](N)C(=O)N[C@H](C(=O)N[C@@H](CCCCN)C(=O)N[C@@H](Cc1c[nH]c2ccccc12)C(=O)N[C@@H](CC(C)C)C(=O)N[C@@H](CC(C)C)C(=O)N[C@@H](CC(N)=O)C(=O)N[C@@H](C)C(=O)N[C@H](C(=O)N[C@@H](CCCCN)C(=O)N[C@@H](CCCCN)C(=O)NCC(=O)N[C@@H](Cc1ccccc1)C(=O)N[C@@H](CCCCN)C(=O)N[C@@H](CC(C)C)C(=O)O)[C@@H](C)CC)[C@@H](C)O . Is its MIC below 7 µM?
Given back: No

Asked: Here's an entry: CC[C@H](C)[C@H](NC(=O)CNC(=O)[C@H](Cc1cnc[nH]1)NC(=O)CNC(=O)CN)C(=O)N[C@@H](CCCN=C(N)N)C(=O)N[C@@H](CCCN=C(N)N)C(=O)N[C@H](C(=O)N[C@H](C(=O)N[C@@H](CCCN=C(N)N)C(=O)N[C@@H](CCCCN)C(=O)N[C@H](C(=O)N[C@H](C(=O)N[C@@H](Cc1cnc[nH]1)C(=O)N[C@H](C(=O)N[C@H](C(=O)N[C@@H](CCCCN)C(=O)N[C@@H](CCCCN)C(N)=O)[C@@H](C)CC)[C@@H](C)CC)[C@@H](C)CC)[C@@H](C)CC)[C@@H](C)CC)[C@@H](C)CC . Is its MIC below 7 µM?
Given back: Yes

====

system: Staphylococcus aureus
attributeMeasured: MIC (µM)
One number for each entry, in µM.

Asked: Which measured MIC value corresponds to CC(C)C[C@H](NC(=O)[C@@H](NC(=O)[C@H](CO)NC(=O)[C@H](CC(C)C)NC(=O)[C@@H]1CCCN1C(=O)[C@H](CC(C)C)NC(=O)[C@H](CO)NC(=O)[C@H](CCCCN)NC(=O)[C@H](CO)NC(=O)[C@@H](N)Cc1ccc(O)cc1)C(C)C)C(=O)N[C@@H](CC(N)=O)C(=O)N1CCC[C@H]1C(=O)O [YSKSLPLSVLNP] ?
Given back: 48.6

====

test system: Candida albicans ATCC 90028
attributeMeasured: MIC (µM)
One number for each entry, in µM.

Solved cases (3 shown):
compound	MIC (µM)
CC[C@H](C)[C@H](NC(=O)[C@H](CCCCN)NC(=O)CNC(=O)[C@@H](NC(=O)[C@@H](NC(=O)[C@H](CO)NC(=O)CNC(=O)[C@H](C)NC(=O)[C@H](CCCCN)NC(=O)[C@H](CO)NC(=O)[C@H](C)NC(=O)[C@H](CCSC)NC(=O)CN)[C@@H](C)CC)C(C)C)C(=O)N[C@@H](C)C(=O)N[C@@H](CCCCN)C(=O)N[C@H](C(=O)N[C@@H](C)C(=O)N[C@@H](CC(C)C)C(=O)NCC(=O)N[C@@H](C)C(=O)N[C@@H](CC(C)C)C(N)=O)[C@@H](C)CC [GMASKAGSIVGKIAKIALGAL]	25
CC[C@H](C)[C@H](NC(=O)[C@H](CC(=O)O)NC(=O)[C@H](Cc1ccccc1)NC(=O)[C@H](CC(C)C)NC(=O)CN)C(=O)N[C@H](C(=O)N[C@@H](CCCCN)C(=O)N[C@@H](CCCCN)C(=O)N[C@H](C(=O)N[C@H](C(=O)NCC(=O)N[C@@H](C)C(=O)N[C@@H](CC(C)C)C(=O)N[C@@H](CCCCN)C(N)=O)C(C)C)C(C)C)C(C)C [GLFDIVKKVVGALK]	22
CC(C)C[C@H](NC(=O)[C@H](CCCCN)NC(=O)[C@H](CCCN=C(N)N)NC(=O)[C@H](Cc1ccccc1)NC(=O)[C@H](Cc1ccccc1)NC(=O)[C@H](CCCCN)NC(=O)[C@H](CCCCN)NC(=O)[C@H](Cc1ccccc1)NC(=O)[C@H](CCCN=C(N)N)NC(=O)[C@H](CCCCN)NC(=O)[C@@H](N)C(C)C)C(=O)N[C@@H](CCCCN)C(=O)N[C@@H](CCCCN)C(=O)N[C@@H](CO)C(=O)N[C@H](C(=O)N[C@@H](CCCCN)C(N)=O)C(C)C [VKRFKKFFRKLKKSVK]	31

Required: MIC, one value per compound below.
1. CC[C@H](C)[C@@H]1NC(=O)CNC(=O)[C@H](CCCN=C(N)N)NC(=O)[C@H](Cc2ccc(O)cc2)NC(=O)[C@@H](NC(=O)[C@@H](NC(=O)[C@H](CCCN=C(N)N)NC(=O)[C@H](Cc2ccccc2)NC(=O)[C@H](C)NC(=O)[C@H](Cc2c[nH]c3ccccc23)NC(=O)[C@@H](N)CCCCN)C(C)C)CSSC[C@@H](C(=O)N[C@@H](Cc2ccc(O)cc2)C(=O)N[C@@H](CCCN=C(N)N)C(=O)N[C@@H](CCCN=C(N)N)C(=O)N[C@@H](CO)C(=O)N[C@@H](CCCN=C(N)N)C(=O)O)NC1=O [KWAFRVCYRGICYRRSR]
2. CC[C@H](C)[C@H](NC(=O)[C@H](CCCN=C(N)N)NC(=O)[C@@H](N)CCCCN)C(=O)N[C@@H](C)C(=O)N[C@@H](CCC(N)=O)C(=O)N[C@@H](CCCN=C(N)N)C(=O)N[C@H](C(=O)N[C@@H](CCCCN)C(=O)N[C@@H](C)C(=O)N[C@@H](Cc1ccccc1)C(=O)N[C@@H](CC(C)C)C(=O)N[C@@H](CCCN=C(N)N)C(=O)O)[C@@H](C)CC [KRIAQRIKAFLR]
3. CC[C@H](C)[C@H](NC(=O)CNC(=O)[C@@H](N)CCCCN)C(=O)N[C@@H](CCCN=C(N)N)C(=O)NCC(=O)N[C@@H](Cc1ccc(O)cc1)C(=O)N[C@@H](CCCCN)C(=O)NCC(=O)NCC(=O)N[C@@H](Cc1ccc(O)cc1)C(=O)N[C@@H](CCCCN)C(=O)NCC(=O)N[C@@H](C)C(=O)N[C@@H](Cc1ccccc1)C(=O)N[C@@H](CCCCN)C(=O)N[C@@H](CCC(N)=O)C(=O)N[C@H](C(=O)N[C@@H](CCCCN)C(=O)N[C@@H](Cc1ccc(O)cc1)C(=O)O)[C@@H](C)O [KGIRGYKGGYKGAFKQTKY]

Given back:
1: 7.21; 2: 10; 3: 2.2

meta.source: DBAASP
